Provenance of the data: the supplement of paper PMC10567573

B1: CDKN1A (parent)
chain: GRKRRQTSMTDFYHSKRRLIFSKR

# Variants of: B1
# PROTOCOL DETAILS: protein stability index of a GFP-peptide fusion (GPS, HEK-293T) (PSI 1-6); higher = more stable;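 further: lentivirally expressed fusions sorted by FACS into six bins by GFP to DsRed ratio, PSI derived from sequencing read proportions per bin multiplied by bin number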
# CONDITION INFO: c terminus: a fixed tail appended
What protein stability index was measured for each of the following?

Below, each entry is followed by its recorded protein stability index result.
{"MUTATION KEY": "R2M", "protein stability index": 3.79}
{"MUTATION KEY": "L19N", "protein stability index": 3}
{"MUTATION KEY": "T7W", "protein stability index": 2.36}
{"MUTATION KEY": "S8C", "protein stability index": 3.59}
{"MUTATION KEY": "D11F", "protein stability index": 2.51}

## Task Which protein stability index is reported for this variant? R2G
## Result 3.19
